Tested on: L1210
Procedure summary: Antitumor activity against mouse L1210 cells assessed as inhibition of [3H]thymidine incorporation after 72 hrs
Format: functional, cell-based
pEC50: −log10 of the molar value.

| Structure smiles | Experimental target | pEC50 |
| --- | --- | --- |
| CC(=O)N[C@H]1[C@@H](OCc2ccccc2)O[C@H](CO)[C@@H](O)[C@@H]1OCC(=O)N1CCC[C@@H]1C(=O)N[C@H](CCC(=O)NCCNc1ncnc2c1ncn2[C@@H]1O[C@H](CO)[C@@H](O)[C@H]1O)C(N)=O | L1210 | 3.29 |
| CC(=O)N[C@H]1[C@@H](OCc2ccccc2)O[C@H](CO)[C@@H](O)[C@@H]1OCC(=O)N[C@H](C)C(=O)N[C@H](CCC(=O)NCCNc1ncnc2c1ncn2[C@@H]1O[C@H](CO)[C@@H](O)[C@H]1O)C(N)=O | L1210 | 3.30 |
| CC[C@@H](NC(=O)CO[C@H]1[C@H](O)[C@@H](CO)O[C@H](OCc2ccccc2)[C@@H]1NC(C)=O)C(=O)N[C@H](CCC(=O)NCCNc1ncnc2c1ncn2[C@@H]1O[C@H](CO)[C@@H](O)[C@H]1O)C(N)=O | L1210 | 3.30 |
